Values compiled from ChEMBL document CHEMBL1132971.

Target: Tyrosine-protein phosphatase non-receptor type 1 (Rattus norvegicus) (UniProt P20417)
Sequence (whole entry): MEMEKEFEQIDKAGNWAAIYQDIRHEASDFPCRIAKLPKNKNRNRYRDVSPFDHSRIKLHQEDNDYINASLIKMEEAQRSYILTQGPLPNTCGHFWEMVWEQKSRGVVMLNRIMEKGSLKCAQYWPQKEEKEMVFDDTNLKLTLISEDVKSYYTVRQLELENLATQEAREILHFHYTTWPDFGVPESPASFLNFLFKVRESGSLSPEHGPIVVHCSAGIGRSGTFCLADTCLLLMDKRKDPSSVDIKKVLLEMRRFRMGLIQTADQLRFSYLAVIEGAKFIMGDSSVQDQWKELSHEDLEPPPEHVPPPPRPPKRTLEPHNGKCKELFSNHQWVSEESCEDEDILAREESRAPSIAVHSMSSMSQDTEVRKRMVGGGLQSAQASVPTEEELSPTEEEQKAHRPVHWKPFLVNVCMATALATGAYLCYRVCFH
Experiment: Inhibition of PTPase (PTP1B) activity in rat hepatic membrane at 50 uM concentration, using pNPP as the substrate
Assay type: cell membranes
Details: Liver
property measured: inhibition

Worked cases, answers included:
>  <compound>
CCCC/C(=C\Cn1oc(=O)[nH]c1=O)c1cccc(OCc2cc(Cl)cc(Cl)c2)c1

>  <inhibition>
57%

$$$$
>  <compound>
Cc1oc(-c2ccc(C(F)(F)F)cc2)nc1COc1cccc(/C=C/Cn2oc(=O)[nH]c2=O)c1

>  <inhibition>
49%

$$$$
>  <compound>
Cc1oc(-c2ccc(Cl)cc2)nc1COc1cccc(/C=C/C(C)n2oc(=O)[nH]c2=O)c1 (stereo not drawn)

>  <inhibition>
33%

$$$$
>  <compound>
Cc1oc(-c2ccc(C(F)(F)F)cc2)nc1COc1cccc(CCCn2oc(=O)[nH]c2=O)c1

>  <inhibition>
54%

$$$$
>  <compound>
CCCC/C(=C\Cn1oc(=O)n(CC(=O)O)c1=O)c1cccc(Oc2cc(Cl)cc(Cl)c2)c1

>  <inhibition>
63%

$$$$
>  <compound>
C/C(=C\Cn1oc(=O)[nH]c1=O)c1ccc2oc(Cc3nc(-c4ccc(C(F)(F)F)cc4)oc3C)cc2c1

>  <inhibition>
57%

$$$$

API: the following record is the query input.
Assay Tyrosine-protein phosphatase non-receptor type 1 (Rattus norvegicus) (UniProt P20417), sample COc1cc(OCc2nc(-c3ccc(C(F)(F)F)cc3)oc2C)cc(/C(C)=C/Cn2oc(=O)[nH]c2=O)c1 , inhibition read: 49%

====

Each entry below carries its reported inhibition.
Target: Tyrosine-protein phosphatase non-receptor type 1 (Rattus norvegicus)
Experiment: Inhibition of PTPase (PTP1B) activity in rat hepatic membrane at 50 uM concentration, using pNPP as the substrate
Type: cell membranes
Conditions: Liver
Note: unit % is implicit; provide only the numeric part.

Check out these entries, answers already filled in.
>  <compound>
Cc1oc(-c2ccc(C(F)(F)F)cc2)nc1COc1cccc(C2CC2Cn2oc(=O)[nH]c2=O)c1 (centres undefined)

>  <inhibition [%]>
51

$$$$
>  <compound>
CCCCCCCCC(=CCn1oc(=O)n(CC(=O)O)c1=O)c1cccc(OCc2nc(-c3ccc(C(F)(F)F)cc3)oc2C)c1

>  <inhibition [%]>
64

$$$$
>  <compound>
C/C(Cn1oc(=O)[nH]c1=O)=C(/C)c1cccc(OCc2nc(-c3ccc(C(F)(F)F)cc3)oc2C)c1

>  <inhibition [%]>
47

$$$$
>  <compound>
C/C(=C\CC1SC(=O)NC1=O)c1cccc(OCc2nc(-c3ccccc3)oc2C)c1 (centres undefined)

>  <inhibition [%]>
5

$$$$
>  <compound>
C/C(=C\C(C)n1oc(=O)[nH]c1=O)c1cccc(OCc2nc(-c3ccc(C(F)(F)F)cc3)oc2C)c1 (centres undefined)

>  <inhibition [%]>
38

$$$$

Reported inhibition ( CCCC/C(=C\Cn1oc(=O)[nH]c1=O)c1cccc(OCc2nc(-c3ccc(C(F)(F)F)cc3)oc2-c2ccccc2)c1 ) = 76

Looking up Cc1oc(-c2ccc(C(F)(F)F)cc2)nc1COc1cccc(/C(=C/Cn2oc(=O)[nH]c2=O)C2CCCCC2)c1 , I see its inhibition listed as 66

Note to self: inhibition recorded for CCCC/C(=C\Cn1oc(=O)[nH]c1=O)c1cccc(Oc2ccc(OC)cc2)c1 was 62

Per the record, C/C(=C\Cn1oc(=O)[nH]c1=O)c1ccc(OCCc2nc(-c3ccc(C(F)(F)F)cc3)oc2C)cc1 has inhibition of 63

Value of measured inhibition for the entry Cc1oc(-c2ccc(C(F)(F)F)cc2)nc1COc1cccc(/C(=C/Cn2oc(=O)[nH]c2=O)c2ccccc2)c1 : 24

====

Molecular target: Tyrosine-protein phosphatase non-receptor type 1 (Rattus norvegicus, UniProt P20417)
Assay: Inhibition of PTPase activity using recombinant r-PTP1B and IR-triphosphopeptide as substrate; ND is no data.
property measured: IC50

>  <compound>
Cc1oc(-c2ccc(OC(F)(F)F)cc2)nc1COc1cccc(C(C)CCn2oc(=O)[nH]c2=O)c1 (centres undefined)

>  <property measured>
IC50

>  <test value>
Not significant

$$$$
>  <compound>
C/C(=C\CC1OC(=O)NC1=O)c1cccc(OCCc2nc(-c3ccccc3)oc2C)c1 (centres undefined)

>  <property measured>
IC50

>  <test value>
Not significant

$$$$
>  <compound>
Cc1oc(-c2ccc(Cl)cc2)nc1COc1cccc(/C=C/C(C)n2oc(=O)[nH]c2=O)c1 (centres undefined)

>  <property measured>
IC50

>  <test value>
Not significant

$$$$
>  <compound>
C/C(=C\CC1OC(=O)NC1=O)c1cccc(OCc2nc(-c3ccccc3)oc2C)c1 (centres undefined)

>  <property measured>
IC50

>  <test value>
Not significant

$$$$

====

Molecular target: UniProt:P20417
Test: Inhibition of PTPase activity in rat hepatic membrane at a concentration of 50 uM using pNPP as the substrate
Type: cell membranes, Liver
Measured Inhibition %, listed per entry.
Numeric answer only, unit % assumed.

>  <molecule smiles>
CCCCc1oc2ccccc2c1COc1cccc(/C(C)=C/Cn2oc(=O)[nH]c2=O)c1

>  <property measured>
Inhibition %

>  <unit text>
%

>  <test value>
33

$$$$

Field Inhibition % (entry Cc1oc(-c2ccc(C(F)(F)F)cc2)nc1COc1cccc(/C(=C/Cn2oc(=O)[nH]c2=O)C(C)(C)C)c1 ) reads 24

Consider Cc1oc(-c2ccc(C(F)(F)F)cc2)nc1COc1cccc(/C(=C/Cn2oc(=O)[nH]c2=O)c2ccc(Cl)cc2)c1 . Its measured Inhibition % is 27

Lab note: measured Inhibition % of Cc1oc(-c2ccc(C(F)(F)F)cc2)nc1COc1cccc(/C(=C/Cn2oc(=O)[nH]c2=O)c2ccc(F)cc2)c1 was 28

Please fill in: Inhibition % reported for C/C(=C\c1cccc(OCc2nc(-c3ccc(C(F)(F)F)cc3)oc2C)c1)Cn1oc(=O)[nH]c1=O = 71

Form: compound = CCCC/C(=C\Cn1oc(=O)[nH]c1=O)c1cccc(Oc2cc(Cl)cc(Cl)c2)c1 ; Inhibition % = 23

====

Molecular target: Tyrosine-protein phosphatase non-receptor type 1 (Rattus norvegicus)
Test: Concentration required to inhibit PTPase activity, recombinant r-PTP1B as the enzyme at a concentration 2.5 uM.
property measured: IC50

Consider C/C(=C\Cn1oc(=O)[nH]c1=O)c1cccc(OCC#Cc2cc(C(F)(F)F)cc(C(F)(F)F)c2)c1 . Its measured IC50 is 25 µM

====

Reported inhibition is given for each of the following compounds.
Target: Tyrosine-protein phosphatase non-receptor type 1 (Rattus norvegicus) (UniProt P20417)
Test: Inhibition of PTPase (PTP1B) activity in rat hepatic membrane at 50 uM concentration, using pNPP as the substrate
Assay type: cell membranes
Conditions: Liver

>  <compound>
CCCC/C(=C\Cn1oc(=O)[nH]c1=O)c1cccc(Oc2ccc(C)cc2)c1

>  <test value>
62%

$$$$
>  <compound>
C/C(=C/C=C/Cn1oc(=O)[nH]c1=O)c1cccc(OCc2nc(-c3ccccc3)oc2C)c1

>  <test value>
55%

$$$$
>  <compound>
C/C(=C\Cn1oc(=O)[nH]c1=O)c1cccc(OCc2noc(-c3ccccc3)n2)c1

>  <test value>
17%

$$$$
>  <compound>
Cc1oc(-c2ccc(C(F)(F)F)cc2)nc1COc1ccc2c(c1)C=C/C2=C\Cn1oc(=O)[nH]c1=O

>  <test value>
31%

$$$$

# inhibition (compound: Cc1oc(-c2ccc(C(F)(F)F)cc2)nc1COc1cccc(C2(C)CC2Cn2oc(=O)[nH]c2=O)c1 (stereo not drawn) ) is 51%

====

Target: Tyrosine-protein phosphatase non-receptor type 1 (Homo sapiens, UniProt P18031)
Sequence (P18031 whole entry): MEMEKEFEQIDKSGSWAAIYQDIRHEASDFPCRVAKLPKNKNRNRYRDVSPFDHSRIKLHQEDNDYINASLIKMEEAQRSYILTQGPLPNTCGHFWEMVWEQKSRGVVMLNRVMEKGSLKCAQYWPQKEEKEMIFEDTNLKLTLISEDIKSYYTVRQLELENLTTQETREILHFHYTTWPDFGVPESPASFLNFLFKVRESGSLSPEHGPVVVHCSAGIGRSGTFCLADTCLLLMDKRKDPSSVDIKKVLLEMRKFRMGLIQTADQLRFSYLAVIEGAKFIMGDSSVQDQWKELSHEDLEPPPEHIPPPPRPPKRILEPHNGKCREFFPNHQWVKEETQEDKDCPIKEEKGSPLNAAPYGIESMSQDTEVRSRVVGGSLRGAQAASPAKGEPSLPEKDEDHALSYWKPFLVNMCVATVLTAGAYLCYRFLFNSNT
Experiment: Concentration required to inhibit PTPase activity, recombinant Protein Tyrosine Phosphatase 1b as the enzyme
pIC50: −log10 of the molar value.
# label = label 1 if pIC50 >= 6 else label 0

Please review the entries below; each comes with its answer.
>  <molecule smiles>
CCCC/C(=C\Cn1oc(=O)[nH]c1=O)c1cccc(OCc2nc(-c3ccc(C(F)(F)F)cc3)oc2-c2ccccc2)c1

>  <group>
label 1

$$$$
>  <molecule smiles>
CCCCCCCCC(=CCn1oc(=O)n(CC(=O)O)c1=O)c1cccc(OCc2nc(-c3ccc(C(F)(F)F)cc3)oc2C)c1

>  <group>
label 1

$$$$
>  <molecule smiles>
CCCCCCCC/C(=C/Cn1oc(=O)n(CC(=O)O)c1=O)c1cccc(OCc2nc(-c3ccc(C(F)(F)F)cc3)oc2C)c1

>  <group>
label 1

$$$$
>  <molecule smiles>
C/C(=C\Cc1nnn[nH]1)c1cccc(OCc2nc(-c3ccc(OC(F)(F)F)cc3)oc2C)c1

>  <group>
label 0

$$$$

As a next step, examine the molecule that follows.
[Q] // inclusive: pIC50 at least 6? input: CCCC/C(=C\Cn1oc(=O)n(CC(=O)O)c1=O)c1cccc(OCc2cc(Cl)cc(Cl)c2)c1
[A] label 0
